- experimental_protocol: gradient 5% acetonitrile 3 min, to 50% in 2 min, to 85% in 15 min, held 3 min, 100 µL/min
- study_conditions: column: Zorbax Extend-C18 2.1 x 50 mm; eluents: water / acetonitrile, 0.1% formic acid
Hi there, I'd appreciate the recorded RP-LC retention time for every entry that follows.
Lab note: write values as number then unit, every time.

(Q) Fill in: RP-LC retention time of Cc1cccc(CN2CCN(C3CCN(C(=O)Nc4ccc5c(c4)OCO5)CC3)C2=O)c1 is ___
(A) 836 s

(Q) Fill in: RP-LC retention time of Cc1ccc(C)c(-c2cc3c4nn(CC(=O)NC(C)C)c(=O)n4ccn3n2)c1 is ___
(A) 856 s

(Q) Fill in: RP-LC retention time of COc1ccc(OC)c(NC(=O)c2cnc(-c3ccc(F)cc3)nc2-c2ccncc2)c1 is ___
(A) 915 s

(Q) Fill in: RP-LC retention time of COc1cccc(-n2c(=O)c3sccc3n(Cc3nc(-c4ccc(F)cc4)no3)c2=O)c1 is ___
(A) 952 s

(Q) Fill in: RP-LC retention time of CCCN(CC1CCOC1)C(=O)Nc1cccc(Cl)c1 (centres undefined) is ___
(A) 827 s

(Q) Fill in: RP-LC retention time of Cc1oc(C2CCC2)nc1C(=O)NCc1cccc(C(F)(F)F)c1 is ___
(A) 1110 s

(Q) Fill in: RP-LC retention time of CCc1ccc(C(C)NS(=O)(=O)c2cc3c(s2)CCN(C(=O)C2CCC2)C3)cc1 (centres undefined) is ___
(A) 1020 s

(Q) Fill in: RP-LC retention time of CCn1ncn2cc(S(=O)(=O)Nc3ccc(C)c(F)c3)cc2c1=O is ___
(A) 909 s

(Q) Fill in: RP-LC retention time of CCc1sc(NC(=O)C2CCCCC2)nc1-c1ccccc1 is ___
(A) 1200 s

(Q) Fill in: RP-LC retention time of Cc1ccc(CNC(=O)C2(C)CCCN(C(=O)Nc3ccc(C)c(C)c3)C2)cc1 (centres undefined) is ___
(A) 897 s

(Q) Fill in: RP-LC retention time of Cc1ccc2ncn(C3CCN(S(=O)(=O)c4cc(C)c(C)cc4C)CC3)c(=O)c2c1 is ___
(A) 1050 s

(Q) Fill in: RP-LC retention time of Cc1cc(C)c(C)c(S(=O)(=O)NCCc2cn(CC(C)C)c3ncccc23)c1C is ___
(A) 1120 s

(Q) Fill in: RP-LC retention time of CN1CCC=C(C(=O)N2c3ccccc3Sc3ccc(Cl)cc32)C1 is ___
(A) 762 s

(Q) Fill in: RP-LC retention time of COc1ccccc1-c1noc(Cn2c(=O)n(CCc3ccccc3)c(=O)c3sccc32)n1 is ___
(A) 1030 s

(Q) Fill in: RP-LC retention time of COc1cc(OC)c(NS(=O)(=O)c2cc(-c3c(C)noc3NC(C)=O)ccc2C)cc1Cl is ___
(A) 813 s

(Q) Fill in: RP-LC retention time of O=C(CC1CCCCC1)N1CCCC(COc2ccc(C(=O)N3CCOCC3)cc2)C1 (centres undefined) is ___
(A) 856 s

(Q) Fill in: RP-LC retention time of COC(=O)c1ccccc1NC(=O)Cn1nc2nc(N3CCCC(C)C3)ccn2c1=O (centres undefined) is ___
(A) 863 s

(Q) Fill in: RP-LC retention time of Cn1cc(-c2cc3n(n2)CCC(=O)N3CC(=O)NCCc2c[nH]c3ccccc23)c2ccccc21 is ___
(A) 825 s

(Q) Fill in: RP-LC retention time of CCCC(=O)N1CCCC1COc1ccc(C(=O)NC2CC2)cc1 (centres undefined) is ___
(A) 717 s

(Q) Fill in: RP-LC retention time of Brc1cccc(-c2nn3c(-c4ccccn4)nnc3s2)c1 is ___
(A) 860 s

(Q) Fill in: RP-LC retention time of Clc1cccc(-c2noc(-c3nc(-c4ccncc4)no3)n2)c1 is ___
(A) 1130 s

(Q) Fill in: RP-LC retention time of COc1ccc(S(=O)(=O)N2CCN(c3ccccn3)CC2)cc1OC is ___
(A) 588 s

(Q) Fill in: RP-LC retention time of COC(=O)c1ccc(NC(=O)CSc2ccc(NC(=O)c3ccccc3F)nn2)cc1 is ___
(A) 805 s

(Q) Fill in: RP-LC retention time of CCCCN(CC(=O)N1CCNCC1)C(=O)c1ccc(Br)cc1 is ___
(A) 589 s

(Q) Fill in: RP-LC retention time of CC1(C)C(=O)N(CC(=O)Nc2ccccc2F)c2ccccc21 is ___
(A) 869 s

(Q) Fill in: RP-LC retention time of CCn1cc(S(=O)(=O)N2CCCC(c3nnnn3-c3ccccc3)C2)cn1 (centres undefined) is ___
(A) 807 s

(Q) Fill in: RP-LC retention time of CCCn1c(=O)sc2cc(S(=O)(=O)N3CCC(C(=O)Nc4ccccn4)CC3)ccc21 is ___
(A) 780 s

(Q) Fill in: RP-LC retention time of Cc1ccccc1-c1nc2cnccn2c1NCCC(=O)NC(C)C is ___
(A) 605 s

(Q) Fill in: RP-LC retention time of CCNC(=O)C1CCN(c2nc3ccc(-c4ccccc4F)nc3s2)CC1 is ___
(A) 848 s

(Q) Fill in: RP-LC retention time of CCN1CCN(CCNC(=O)C2Cn3cccc3C(=O)N2CC(C)C)CC1 (centres undefined) is ___
(A) 562 s

(Q) Fill in: RP-LC retention time of CCn1nccc1-c1cccc(-c2noc(-c3cc(OC)cc(OC)c3)n2)c1 is ___
(A) 1240 s

(Q) Fill in: RP-LC retention time of CN(c1nc(-c2ccc(Cl)cc2)nc2ccccc12)C1CCCCC1 is ___
(A) 941 s

(Q) Fill in: RP-LC retention time of O=C(C(=O)N1CCN(c2ccccc2Cl)CC1)c1c[nH]c2ccccc12 is ___
(A) 940 s

(Q) Fill in: RP-LC retention time of C/C=C/c1ccc(OCC(O)CN2CCN(C)CC2)c(OC)c1 (centres undefined) is ___
(A) 560 s

(Q) Fill in: RP-LC retention time of COc1ccc(NC(=O)c2c(C)oc3nc(C)nc(N4CCOCC4)c23)cc1 is ___
(A) 706 s

(Q) Fill in: RP-LC retention time of CN(CCc1noc(-c2ccc(C(=O)N3CCCCC3)cc2)n1)C(=O)c1ccc(Br)o1 is ___
(A) 782 s

(Q) Fill in: RP-LC retention time of CCOCCCNC(=O)c1cc2sccc2n1Cc1ccc(Cl)cc1 is ___
(A) 1040 s

(Q) Fill in: RP-LC retention time of CCC(C)NC(=O)C1CCN(c2nc3cccnc3s2)CC1 (centres undefined) is ___
(A) 664 s

(Q) Fill in: RP-LC retention time of CSc1ccc(-c2nc3nc(C)cc(C)n3c2Nc2ccccc2)cc1 is ___
(A) 755 s
